# assaySystem: T1, human transferrin receptor (Hu TrfR), recombinant extracellular domain (human, UniProt P02786 89-760)
# T1 construct: extracellular domain; Recombinant Fc fusion (R&D Systems) or His-tagged (Sino Biologicals); also called human TfR
# T1 sequence (P02786 89-760): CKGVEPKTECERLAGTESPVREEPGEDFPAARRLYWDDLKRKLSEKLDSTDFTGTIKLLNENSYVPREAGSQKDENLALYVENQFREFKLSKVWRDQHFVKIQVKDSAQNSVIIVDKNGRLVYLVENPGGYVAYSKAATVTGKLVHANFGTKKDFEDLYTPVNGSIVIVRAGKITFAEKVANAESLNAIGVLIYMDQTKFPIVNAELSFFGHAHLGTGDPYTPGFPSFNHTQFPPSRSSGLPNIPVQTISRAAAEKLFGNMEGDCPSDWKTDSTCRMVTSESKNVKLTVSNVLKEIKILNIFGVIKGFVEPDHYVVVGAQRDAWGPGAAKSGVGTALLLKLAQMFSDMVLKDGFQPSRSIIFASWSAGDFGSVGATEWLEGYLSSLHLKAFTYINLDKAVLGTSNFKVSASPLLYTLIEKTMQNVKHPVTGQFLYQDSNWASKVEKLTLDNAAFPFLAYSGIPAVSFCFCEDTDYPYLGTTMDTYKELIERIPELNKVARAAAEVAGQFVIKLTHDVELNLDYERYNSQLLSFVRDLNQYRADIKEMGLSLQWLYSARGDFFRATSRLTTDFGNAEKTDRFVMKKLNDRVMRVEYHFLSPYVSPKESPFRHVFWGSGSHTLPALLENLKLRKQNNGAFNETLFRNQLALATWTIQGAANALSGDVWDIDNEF
# procedureDetails: phage selection and phage ELISA on coated receptor ECD
propertyName: binding result

binder="GGVCRYQEWHMESWGSCRRDSDCPGACICRGNGYCGSGSD (designed binder) [CYC43]" propertyname="binding result" result=binds
binder="GGVCDPRWLAGWGSCRRDSDCPETCICRGNGYCASGYD (designed binder) [CYC18]" propertyname="binding result" result=binds
binder="GGVCQMVSEHWVARVWCRRDSDCPGACICRGNGYCGSGSD (designed binder) [CYC45]" propertyname="binding result" result=binds
